TESTED_TARGET: T1, human IL-4 (human, UniProt P05112 25-153)
T1 sequence (looked up): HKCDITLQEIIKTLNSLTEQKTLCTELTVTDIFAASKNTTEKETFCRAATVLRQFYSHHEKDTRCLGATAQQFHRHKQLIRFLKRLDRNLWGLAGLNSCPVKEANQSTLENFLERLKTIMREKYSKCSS
PROTOCOL_DESCRIPTION: cell-based or functional assay
VALUE_KIND: CD23 IC50 [pM]
Be sure to follow the number with its unit.

Quick check: CD23 IC50 [pM] of IL4-1356 (antibody, IgG1, V domains shown) VH: QVTLRESGPALVKPTQTLTLTCTFSGFSLLTFGSGVSWIRQPPGKGLEWLAHIYWDDDKRYNPSLKSRLTISKDTSRNQVVLTMTNMDPVDTATYYCARRETVFYWYFDVWGRGTPVTVSS VL: DIQMTQSPSSLSASVGDRVTITCKASQSVDEDGDSYMNWYQQKPGKAPKLLIYAASNLESGVPSRFSGSGSGTDFTLTISSLQPEDFATYYCQQSNEDPPTFGGGTKVEIK ?
44.9 pM
